Assay: Pharmacokinetic study in rats after oral administration of cinobufacini capsule (UPLC-MS/MS of plasma)
Format: in vivo, rat
Settings: male, Sprague-Dawley, in vivo; rat plasma, oral cinobufacini capsule 0.9 g/kg (low), mean ± SD, n = 6; read-out: Vz/F
Reported Vd/F is given for each of the following compounds.
readout_label: Vd/F

>>> recorded_value("C[C@]12CC[C@H](O)C[C@H]1CC[C@@H]1[C@@H]2[C@H](O)C[C@]2(C)[C@@H](c3ccc(=O)oc3)CC[C@]12O")
"4.75 L/kg"
>>> recorded_value("C[C@]12CC[C@H](O)C[C@H]1CC[C@@H]1[C@@H]2CC[C@]2(C)[C@@H](c3ccc(=O)oc3)CC[C@]12O")
"1.81 L/kg"
>>> recorded_value("C[C@]12CC[C@H](O)C[C@@]1(O)CC[C@@H]1[C@@H]2CC[C@]2(C)[C@@H](c3ccc(=O)oc3)CC[C@]12O")
"1.75 L/kg"

---

Assay: Stability of analytes in rat plasma QC samples under storage conditions
Type: physicochemical
Settings: rat plasma, long-term; low QC level (4.99–5.00 ng/ml), n = 6
readout_label: −80°C for 30 days, RE (%)

>>> recorded_value("C[C@]12CC[C@H]3[C@@H](CC[C@]4(O)C[C@@H](O)CC[C@]34C=O)[C@@]1(O)CC[C@@H]2c1ccc(=O)oc1 [HBG, hellebrigenin]")
"−5.0"
>>> recorded_value("C[C@]12CC[C@H](O)C[C@H]1CC[C@@H]1[C@@H]2CC[C@]2(C)[C@@H](c3ccc(=O)oc3)CC[C@]12O [BF, bufalin]")
8.7
>>> recorded_value("C[C@]12CC[C@H](O)C[C@@]1(O)CC[C@@H]1[C@@H]2CC[C@]2(C)[C@@H](c3ccc(=O)oc3)CC[C@]12O [TCG, telocinobufagin]")
0.9
>>> recorded_value("CC(=O)O[C@H]1[C@H]2O[C@]23[C@@H]2CC[C@@H]4C[C@@H](O)CC[C@]4(C)[C@H]2CC[C@]3(C)[C@H]1c1ccc(=O)oc1 [CBG, cinobufagin]")
3.7
>>> recorded_value("C[C@]12CC[C@H](O)C[C@@]1(O)CC[C@@H]1[C@@H]2CC[C@]2(C)[C@@H](c3ccc(=O)oc3)[C@@H](O)[C@H]3O[C@]132 [DCT, desacetylcinobufotalin]")
2.4
>>> recorded_value("CC(=O)O[C@H]1C[C@]2(O)[C@@H]3CC[C@@H]4C[C@@H](O)CC[C@]4(C)[C@H]3CC[C@]2(C)[C@H]1c1ccc(=O)oc1 [BL, bufotalin]")
2.3
>>> recorded_value("CC(=O)O[C@H]1[C@H]2O[C@]23[C@@H]2CC[C@]4(O)C[C@@H](O)CC[C@]4(C)[C@H]2CC[C@]3(C)[C@H]1c1ccc(=O)oc1 [CBT, cinobufotalin]")
"−0.3"

---

Test: Pharmacokinetic study in rats after oral administration of cinobufacini capsule (UPLC-MS/MS of plasma)
Assay type: in vivo, rat
Settings: male, Sprague-Dawley, in vivo; rat plasma, oral cinobufacini capsule 1.8 g/kg (medium), mean ± SD, n = 6
readout_label: AUC(0-t) (ng·h/mL)

>>> recorded_value("C[C@]12CC[C@H](O)C[C@@]1(O)CC[C@@H]1[C@@H]2CC[C@]2(C)[C@@H](c3ccc(=O)oc3)[C@@H](O)[C@H]3O[C@]132 [DCT, desacetylcinobufotalin]")
34.2
>>> recorded_value("C[C@]12CC[C@H](O)C[C@H]1CC[C@@H]1[C@@H]2CC[C@]2(C)[C@@H](c3ccc(=O)oc3)CC[C@]12O [BF, bufalin]")
310
>>> recorded_value("C[C@]12CC[C@H](O)C[C@H]1CC[C@@H]1[C@@H]2[C@H](O)C[C@]2(C)[C@@H](c3ccc(=O)oc3)CC[C@]12O [GBL, gamabufotalin]")
21.9
>>> recorded_value("C[C@]12CC[C@H](O)C[C@@]1(O)CC[C@@H]1[C@@H]2CC[C@]2(C)[C@@H](c3ccc(=O)oc3)CC[C@]12O [TCG, telocinobufagin]")
89.7
>>> recorded_value("C[C@]12CC[C@H](O)C[C@H]1CC[C@@H]1[C@@H]2C(=O)[C@@H](O)[C@]2(C)[C@@H](c3ccc(=O)oc3)CC[C@]12O [PBG, pseudobufarenogin]")
28.4

---

Assay: Stability of analytes in rat plasma QC samples under storage conditions
Assay type: physicochemical
Conditions: rat plasma, −80°C to room temperature; low QC level (4.99–5.00 ng/ml), n = 6
Reported Three freeze–thaw cycles, RE is given for each of the following molecules.
readout_label: Three freeze–thaw cycles, RE (%)

>>> recorded_value("C[C@]12CC[C@H]3[C@@H](CC[C@]4(O)C[C@@H](O)CC[C@]34C=O)[C@@]1(O)CC[C@@H]2c1ccc(=O)oc1 [HBG, hellebrigenin]")
9.3
>>> recorded_value("CC(=O)O[C@H]1C[C@]2(O)[C@@H]3CC[C@@H]4C[C@@H](O)CC[C@]4(C)[C@H]3CC[C@]2(C)[C@H]1c1ccc(=O)oc1 [BL, bufotalin]")
3.4
>>> recorded_value("C[C@]12CC[C@H](O)C[C@H]1CC[C@@H]1[C@@H]2CC[C@]2(C)[C@@H](c3ccc(=O)oc3)CC[C@]12O [BF, bufalin]")
"−7.7"
>>> recorded_value("C[C@]12CC[C@H](O)C[C@@]1(O)CC[C@@H]1[C@@H]2CC[C@]2(C)[C@@H](c3ccc(=O)oc3)CC[C@]12O [TCG, telocinobufagin]")
5.8

---

Test: Stability of analytes in rat plasma QC samples under storage conditions
Assay type: physicochemical
Settings: post-treatment storage in autosampler; high QC level (249.58–250.28 ng/ml), n = 6
readout_label: Stability during 24 h at 4°C, RE (%)

>>> recorded_value("C[C@]12CC[C@H](O)C[C@H]1CC[C@@H]1[C@@H]2CC[C@]2(C)[C@@H](c3ccc(=O)oc3)[C@@H](O)[C@H]3O[C@]132")
4.6
>>> recorded_value("CC(=O)O[C@H]1C[C@]2(O)[C@@H]3CC[C@@H]4C[C@@H](O)CC[C@]4(C)[C@H]3CC[C@]2(C)[C@H]1c1ccc(=O)oc1")
5.7
>>> recorded_value("C[C@]12CC[C@H](O)C[C@@]1(O)CC[C@@H]1[C@@H]2CC[C@]2(C)[C@@H](c3ccc(=O)oc3)[C@@H](O)[C@H]3O[C@]132")
9.6
>>> recorded_value("CC(=O)O[C@H]1[C@H]2O[C@]23[C@@H]2CC[C@]4(O)C[C@@H](O)CC[C@]4(C)[C@H]2CC[C@]3(C)[C@H]1c1ccc(=O)oc1")
4.8
>>> recorded_value("CC(=O)O[C@H]1[C@H]2O[C@]23[C@@H]2CC[C@@H]4C[C@@H](O)CC[C@]4(C)[C@H]2CC[C@]3(C)[C@H]1c1ccc(=O)oc1")
0.6
>>> recorded_value("C[C@]12CC[C@H](O)C[C@@]1(O)CC[C@@H]1[C@@H]2CC[C@]2(C)[C@@H](c3ccc(=O)oc3)CC[C@]12O")
"−4.7"
>>> recorded_value("C[C@]12CC[C@H](O)C[C@H]1CC[C@@H]1[C@@H]2C(=O)[C@@H](O)[C@]2(C)[C@@H](c3ccc(=O)oc3)CC[C@]12O")
10.2
>>> recorded_value("C[C@]12CC[C@H](O)C[C@H]1CC[C@@H]1[C@@H]2CC[C@]2(C)[C@@H](c3ccc(=O)oc3)C[C@H]3O[C@]132")
"−3.3"
>>> recorded_value("C[C@]12CC[C@H](O)C[C@H]1CC[C@@H]1[C@@H]2CC[C@]2(C)[C@@H](c3ccc(=O)oc3)CC[C@]12O")
"−8.5"
>>> recorded_value("C[C@]12CC[C@H](O)C[C@H]1CC[C@@H]1[C@@H]2[C@H](O)C(=O)[C@]2(C)[C@@H](c3ccc(=O)oc3)CC[C@]12O")
"−4.1"
>>> recorded_value("C[C@]12CC[C@H](O)C[C@H]1CC[C@@H]1[C@@H]2[C@H](O)C[C@]2(C)[C@@H](c3ccc(=O)oc3)CC[C@]12O")
5.4
>>> recorded_value("C[C@]12CC[C@H]3[C@@H](CC[C@]4(O)C[C@@H](O)CC[C@]34C=O)[C@@]1(O)CC[C@@H]2c1ccc(=O)oc1")
0.8

---

Assay: Pharmacokinetic study in rats after oral administration of cinobufacini capsule (UPLC-MS/MS of plasma)
Type: in vivo, rat
Conditions: male, Sprague-Dawley, in vivo; rat plasma, oral cinobufacini capsule 0.9 g/kg (low), mean ± SD, n = 6; read-out: CLz/F (converted)
Classify as follows. Reported CL/F greater than or equal to 100 mL/min/kg: 1. Reported CL/F below: -1.

>>> classification("C[C@]12CC[C@H](O)C[C@@]1(O)CC[C@@H]1[C@@H]2CC[C@]2(C)[C@@H](c3ccc(=O)oc3)CC[C@]12O [TCG, telocinobufagin]")
1
>>> classification("C[C@]12CC[C@H](O)C[C@@]1(O)CC[C@@H]1[C@@H]2CC[C@]2(C)[C@@H](c3ccc(=O)oc3)[C@@H](O)[C@H]3O[C@]132 [DCT, desacetylcinobufotalin]")
-1
>>> classification("C[C@]12CC[C@H](O)C[C@H]1CC[C@@H]1[C@@H]2[C@H](O)C[C@]2(C)[C@@H](c3ccc(=O)oc3)CC[C@]12O [GBL, gamabufotalin]")
1
>>> classification("C[C@]12CC[C@H](O)C[C@H]1CC[C@@H]1[C@@H]2C(=O)[C@@H](O)[C@]2(C)[C@@H](c3ccc(=O)oc3)CC[C@]12O [PBG, pseudobufarenogin]")
-1
>>> classification("C[C@]12CC[C@H](O)C[C@H]1CC[C@@H]1[C@@H]2CC[C@]2(C)[C@@H](c3ccc(=O)oc3)CC[C@]12O [BF, bufalin]")
-1
>>> classification("C[C@]12CC[C@H](O)C[C@H]1CC[C@@H]1[C@@H]2[C@H](O)C(=O)[C@]2(C)[C@@H](c3ccc(=O)oc3)CC[C@]12O [ABG, arenobufagin]")
1
>>> classification("C[C@]12CC[C@H](O)C[C@H]1CC[C@@H]1[C@@H]2CC[C@]2(C)[C@@H](c3ccc(=O)oc3)[C@@H](O)[C@H]3O[C@]132 [DCG, desacetylcinobufagin]")
-1
>>> classification("C[C@]12CC[C@H]3[C@@H](CC[C@]4(O)C[C@@H](O)CC[C@]34C=O)[C@@]1(O)CC[C@@H]2c1ccc(=O)oc1 [HBG, hellebrigenin]")
1
